Sourced from the supplement of paper PMC6555819

# Test system: PXR homodimer (NR concentration 270 nM)
# measurement-notes: PBM binding z-score (relative to random genomic background probes); higher = stronger binding; sequences stand for … in GC…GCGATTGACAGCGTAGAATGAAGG
Returns Satisfied if the recorded PBM binding z-score is greater than or equal to -0.1, and Not satisfied otherwise.

Prompt: Is it the case that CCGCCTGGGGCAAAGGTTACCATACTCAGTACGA has PBM binding z-score reaching or exceeding -0.1?
Response: Not satisfied

Prompt: Does the sequence GCGACTGGGGCAAAGAAGGTTACCATAAGGTTGG have recorded PBM binding z-score that is -0.1 or more?
Response: Not satisfied

Prompt: Please indicate if the recorded PBM binding z-score for TAGGCTAGGTCAGATCGGGCCAGTATACGCTATA meets or exceeds -0.1.
Response: Not satisfied

Prompt: I'd appreciate it if you could say whether ACTACAGGGTCATCGTAGGCCAGAGTACGCACAG has PBM binding z-score at least equal to -0.1.
Response: Satisfied

Prompt: Reported PBM binding z-score reaches at least -0.1 for TCTAGCCGGCCAGAGGGTCACTCAAGAGGTACGG ?
Response: Not satisfied

Prompt: # check: PBM binding z-score of CTCGAAACGTCGTGCTCAGGTGAGTATACCAAAC is greater than or equal to -0.1
Response: Not satisfied

Prompt: Can CGTCCAAGGTCATAGGAGGTCAGGGAAGACAGAT be said to have PBM binding z-score at or above -0.1?
Response: Satisfied

Prompt: Given the entry AGAATGAGGTTATACGTAGAGCAGGGAAGAAAGT , answer whether its PBM binding z-score meets or surpasses -0.1.
Response: Satisfied

Prompt: Textbook exercise: given the entry CTCGAAAGGTCGTGCTCATGTGAGTATACCAAAC , state whether its PBM binding z-score is greater than or equal to -0.1.
Response: Satisfied

Prompt: Kindly determine if PBM binding z-score recorded for CTTTACGGGTCACGAGGTTATAGCACGACGAGCG is above or exactly -0.1.
Response: Satisfied

Prompt: I'd appreciate it if you could say whether GGAACGATGGCAAAGTTGATAGCATCTGTCGACG has PBM binding z-score at least equal to -0.1.
Response: Not satisfied

Prompt: Tell me whether PBM binding z-score is at least -0.1 here: AGAACGAGGGCAATGAGTCGATAGCACGGGTGGC
Response: Satisfied

* * *

# Test system: RARa:RXR (NR concentration 270 nM, RXRa partner concentration 90 nM)
# measurement-notes: PBM binding z-score (relative to random genomic background probes); higher = stronger binding; sequences stand for … in GC…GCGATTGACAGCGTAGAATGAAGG
endpoint-name: PBM binding z-score
Provide a numeric answer; units are not to be included.

Prompt: Name the recorded PBM binding z-score of the item CGTCCAAGGTCACAGGTCAGTGAAGAGATGACGG in your answer.
Response: 6.06

Prompt: Give the value of PBM binding z-score reported for the following: GCTGCTTGGTCAACTGATGGTCAGCTAAAGCTCG
Response: -0.138

Prompt: Specify reported PBM binding z-score for the sequence shown: ACCTCTAGGTAAAGTTCAGTGAAAGATCGATAGA
Response: 0.806

Prompt: Assign PBM binding z-score to the following record: CCTCGGAGAACAGAAGGTCAGAGCTGTCCGCTTT
Response: 1.92

Prompt: Annotate the sequence GCTAGCAGGCCATTTGGGTCACTCATTGACGGGC with its measured PBM binding z-score.
Response: 0.652

Prompt: Supply reported PBM binding z-score belonging to this sequence: CCTACTGGGCCACGAAGGGTCATTGATTCAGTGA
Response: 3.46
